# measurement.description: in vitro
# run.conditions: human, hela cells, % viability
measurement.name: viability at 28.5 h, 10 µM (%)
Answers are plain numbers, in %.

The examples below pair each entry with its known result.
[
  {
    "compound": "O=C(NCC1COc2ccccc2O1)N1CCCC(CO)C1 (stereo not drawn)",
    "viability at 28.5 h, 10 µM [%]": 91.3
  },
  {
    "compound": "CN(C)C(=O)CCCN1C(=O)CC2(C1=O)C(=O)N(C)c1ccc(F)cc12 (stereo not drawn)",
    "viability at 28.5 h, 10 µM [%]": 103
  },
  {
    "compound": "CN1CCC(N2CCN(C(=O)NCCCN3CCCC3=O)CC2)CC1",
    "viability at 28.5 h, 10 µM [%]": 102
  },
  {
    "compound": "CSc1nc2ccc(S(=O)(=O)N3CCCC3)cc2s1",
    "viability at 28.5 h, 10 µM [%]": 104
  },
  {
    "compound": "OC1(c2ccc(F)cc2)CC2CCC(C1)N2 (stereo not drawn)",
    "viability at 28.5 h, 10 µM [%]": 89.7
  }
]

For each of the compounds below, state viability at 28.5 h, 10 µM.
1. Cc1cc(NS(=O)(=O)c2ccc(NC(=S)NC(=O)C(C)(C)C)cc2)no1
2. COc1ccc(OCC(=O)Nc2ccc(C(=O)O)c(Cl)c2)cc1
3. CCOC(=O)c1sc(C)c(C(N)=O)c1/N=C1\CCCN1
4. Cc1oc2ccc(O)cc2c1C(=O)NC(C)(C)CN1CCCC(C)C1 (stereo not drawn)
5. COC(=O)c1ccc2c(=O)n(CCN3CCOCC3)c(=S)[nH]c2c1
6. COCCCn1c(=O)[nH]c2ncc(-c3cc(C(C)C)ccc3OC)nc21
7. Cc1nc(-c2ccccc2)ncc1COC(=O)N1CCOCC1

Reply:
[95.7, 104, 105, 105, 69, 82.8, 112]

* * *

# measurement.description: in vitro
# run.conditions: human, hela cells, % viability
I'd appreciate it if you could supply viability at 28.5 h, 10 µM values for the items below.
Give bare numbers, in %.

[
  {
    "compound": "Cc1cc2oc(=O)cc(C)c2cc1NC(=O)c1ccccc1C(=O)O",
    "value.unit": "%",
    "viability at 28.5 h, 10 µM": 92.1
  },
  {
    "compound": "Cc1nc2c(C(=O)NC3CCOCC3)cnn2c(C)c1Cc1cccc(Br)c1",
    "value.unit": "%",
    "viability at 28.5 h, 10 µM": 92.3
  }
]

Task item: Consider the compound shown here: CCOC(=O)NC(=O)CSc1nnc(C2COc3ccccc3O2)n1-c1ccccc1 (stereo not drawn) What is its recorded viability at 28.5 h, 10 µM?
Reply: 88.9

* * *

I'd appreciate it if you could supply viability at 28.5 h, 10 µM values for the items below.
# measurement.description: in vitro
# run.conditions: human, hela cells, % viability

Take a look at these entries with their results.
[
  {
    "compound": "Cn1cnc(C(=O)N2CC[C@H]3NC(=O)c4ccccc4OCCCCC[C@H]3C2)c1",
    "viability at 28.5 h, 10 µM": "88.9%"
  },
  {
    "compound": "COCCCNCCn1cnc2c(N)ncnc21",
    "viability at 28.5 h, 10 µM": "88.9%"
  },
  {
    "compound": "CC(C)CNc1nccnc1-c1ccc(Cl)cc1",
    "viability at 28.5 h, 10 µM": "91.3%"
  }
]

Batch request: viability at 28.5 h, 10 µM for each of the following compounds.
1. Cc1cnc2c(C(=O)N3CC(C(=O)N4CCN(c5ccccc5)CC4)C3)cnn2c1
2. CCCC(=O)Nc1cc(S(=O)(=O)NC)ccc1C
3. O=C(O)CNC(=O)CNC(=O)Cn1c(-c2ccccc2)cc2ccccc21

Reply:
1. 92.4%
2. 91.8%
3. 89.1%

* * *

# measurement.description: in vitro
# run.conditions: human, hela cells, % viability
Answer each item with its documented viability at 28.5 h, 10 µM.
Give bare numbers, in %.

[
  {
    "compound": "Cc1nc(CNC(=O)c2nn(-c3cccc(C(C)C)c3)cc2O)no1",
    "viability at 28.5 h, 10 µM, %": 89
  },
  {
    "compound": "Cc1cccc(NC(=O)CSc2nc(O)c3c(C)cc(C)nc3n2)c1",
    "viability at 28.5 h, 10 µM, %": 90.5
  },
  {
    "compound": "Cc1n[nH]cc1CN(CCCn1ccnc1)Cc1cccc(F)c1",
    "viability at 28.5 h, 10 µM, %": 90.1
  },
  {
    "compound": "O=C(CNS(=O)(=O)c1cc(Br)c(Cl)s1)N1CCOCC1",
    "viability at 28.5 h, 10 µM, %": 100
  },
  {
    "compound": "FC(F)(F)c1nc2ccccc2[nH]1",
    "viability at 28.5 h, 10 µM, %": 84.5
  },
  {
    "compound": "O=C(NCCO)c1ccc(-c2cnc3[nH]c(=O)n(C4CCOCC4)c3n2)cc1",
    "viability at 28.5 h, 10 µM, %": 108
  },
  {
    "compound": "COc1ccc(CC(=O)Nc2nnc(C)s2)cc1OC",
    "viability at 28.5 h, 10 µM, %": 113
  },
  {
    "compound": "CC(C)CC(=O)NCCn1nc(-c2ccccc2F)cc1CN(C)C",
    "viability at 28.5 h, 10 µM, %": 97.4
  },
  {
    "compound": "Cc1nc(CN2CCN(CCc3ccccc3)CC2)cs1",
    "viability at 28.5 h, 10 µM, %": 87.6
  },
  {
    "compound": "Cc1ccc(C(=O)N(C)Cc2cc(-c3ccncc3)no2)c(=O)n1C",
    "viability at 28.5 h, 10 µM, %": 83.7
  }
]

Report viability at 28.5 h, 10 µM for each item below.
1. COc1ccc(-c2cccc(CN(Cc3ccc4c(c3)OCO4)CC(C)O)c2)cc1 (centres unmarked)
2. CN(CC1COc2ccccc2O1)C(=O)CC1CCN(C(=O)CC2CCCCC2)CC1 (centres unmarked)
3. CC(=O)N1CCc2cc(NC(=O)c3cc4cc(C)ccc4o3)ccc21

Reply:
1: 107; 2: 92.7; 3: 86.2

Task item: Looking for the measured viability at 28.5 h, 10 µM of "CC(C)(C)c1cc(C[C@H]2CNCC[C@H]2CC(=O)Nc2nccs2)no1" , can you help?
Reply: 81

* * *

# measurement.description: in vitro
# run.conditions: human, hela cells, % viability
measurement.name: viability at 28.5 h, 10 µM (%)
Numbers only, in %.

[
  {
    "compound": "O=C(NCc1ccc(OC2CCNCC2)cc1)c1cnccn1 [CBK036359T]",
    "measured.result": 104
  },
  {
    "compound": "O=C(Cc1ccc([N+](=O)[O-])cc1)Nc1cc(C(=O)O)cc(C(=O)O)c1",
    "measured.result": 100
  },
  {
    "compound": "Nc1ccccc1Sc1cc(C(F)(F)F)ccn1",
    "measured.result": 91.4
  }
]

Quick batch: viability at 28.5 h, 10 µM for everything below.
1. COc1ccc(OC[C@@H]2C3CCC(C3)N2C(=O)C2CC2)cc1 (some centres unmarked)
2. COc1ccccc1C1(CCNCc2ccc3c(c2)OCO3)CCOC(C)(C)C1 (centres unmarked) [CBK265599G]

Reply:
1: 94.7; 2: 92.3

* * *

# System: C. trachomatis L2/434/Bu expressing GFP (CTL2-GFP)
# Construct: L2/434/Bu GFP intracellular growth in HeLa cells
# measurement.description: microbe, parasite or virus in culture
# Set-up: C. trachomatis total inclusion area by high-content imaging, normalised to DMSO
# run.conditions: Chlamydia trachomatis, HeLa, 28.5 h; total inclusion area; read-out: % of control remaining
Entries whose activity at 10 µM is below 7% take Satisfied; entries at or above 7% take Not satisfied.

Example results:
[
  {
    "compound": "Nc1cccc2c(OCCO)cccc12 [CBK001976C]",
    "answer.label": "Not satisfied"
  },
  {
    "compound": "CCOc1ccc2nc(NC(=N)N)nc(C)c2c1 [CBK010384C]",
    "answer.label": "Satisfied"
  },
  {
    "compound": "COc1cc(NS(=O)(=O)c2ccc(N/C=C3/CCc4ccccc4C3=O)cc2)nc(OC)n1",
    "answer.label": "Not satisfied"
  },
  {
    "compound": "FC(F)(F)CCN1CCC2(CC1)NCCc1c2[nH]c2ccc(Cl)cc12",
    "answer.label": "Not satisfied"
  }
]

Task item: Hi there! Is activity at 10 µM for "CCN1CCN(c2cc3c(cc2F)c(=O)c(C(=O)NCCOC)cn3C2CC2)CC1" below 7%, do you know?
Reply: Satisfied

Task item: Is activity at 10 µM of CC(N)C(=O)NC1CCN(c2nc3c(cc2F)c(=O)c(C(=O)O)cn3C23CC(C2)C3)C1 (centres unmarked) strictly below 7%?
Reply: Satisfied

All figures here come from paper PMC12040169.
